# SYSTEM: NTCP (Homo sapiens)
# Sequence (Q14973 1-349): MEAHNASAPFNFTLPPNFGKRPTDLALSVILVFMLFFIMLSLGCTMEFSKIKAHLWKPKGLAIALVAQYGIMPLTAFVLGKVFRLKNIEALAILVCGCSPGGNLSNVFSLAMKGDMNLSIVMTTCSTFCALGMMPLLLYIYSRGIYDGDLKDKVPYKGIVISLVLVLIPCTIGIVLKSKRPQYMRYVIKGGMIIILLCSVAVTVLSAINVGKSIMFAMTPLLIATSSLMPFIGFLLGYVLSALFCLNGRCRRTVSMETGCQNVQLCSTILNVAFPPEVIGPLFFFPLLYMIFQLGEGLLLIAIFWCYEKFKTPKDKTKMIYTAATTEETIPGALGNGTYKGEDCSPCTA
# ASSAY INFO: [3H]-TCA uptake assay (NTCP inhibition)
# Format: cell-based
# SETTINGS: IC50, given as a range, marked * (asterisk not explained)
IC50 values for the compounds below.

Here's what some known entries look like.
CCC1NC(=O)C(C2OC(SC(C)c3ccccc3)CC2C)N(C)C(=O)C(C(C)C)N(C)C(=O)C(CC(C)C)N(C)C(=O)C(CC(C)C)N(C)C(=O)C(C)NC(=O)C(C)NC(=O)C(CC(C)C)N(C)C(=O)C(C(C)C)NC(=O)C(CC(C)C)N(C)C(=O)CN(C)C1=O (stereo not drawn) [Compound 78A-s] ... 1 to 100 µM
CCC1NC(=O)C(C2OC(SCc3cccc(OCC4CCOCC4)c3)CC2C)N(C)C(=O)C(C(C)C)N(C)C(=O)C(CC(C)C)N(C)C(=O)C(CC(C)C)N(C)C(=O)C(C)NC(=O)C(C)NC(=O)C(CC(C)C)N(C)C(=O)C(C(C)C)NC(=O)C(CC(C)C)N(C)C(=O)CN(C)C1=O (stereo not drawn) ... 1 to 100 µM

Moving on to another compound below.
Which IC50 is listed for CCC1NC(=O)C(C2OC(Sc3cccc(OCC4CCN(C)CC4)c3)CC2C)N(C)C(=O)C(C(C)C)N(C)C(=O)C(CC(C)C)N(C)C(=O)C(CC(C)C)N(C)C(=O)C(C)NC(=O)C(C)NC(=O)C(CC(C)C)N(C)C(=O)C(C(C)C)NC(=O)C(CC(C)C)N(C)C(=O)CN(C)C1=O (stereo not drawn) ? 1 to 100 µM
